testDescription: Acute toxicity in mice, up-down method
Format: in vivo
measurementContext: mouse, in vivo, po; mice, intragastric, corn oil, up-down method; unit inferred

>  <molecule>
COc1ccc(OC(=O)c2ccncc2)c(C(C)(C)C)c1 [XH2011]

>  <LD50>
> 1300 mg/kg

$$$$
>  <molecule>
COc1ccc(OC(=O)c2cccnc2)c(C(C)(C)C)c1 [XH2010, 2-tert-butyl-4-methoxyphenol nicotinate]

>  <LD50>
> 1200 mg/kg

$$$$
>  <molecule>
COc1ccc(O)c(C(C)(C)C)c1 [BHA, 2-tert-butyl-4-methoxyphenol]

>  <LD50>
1100 mg/kg

$$$$
>  <molecule>
COc1ccc(OC(C)=O)c(C(C)(C)C)c1 [XH2006, 2-tert-butyl-4-methoxyphenol acetate]

>  <LD50>
> 1200 mg/kg

$$$$

====

Listed molecules paired with reported IC50
Test system: mice embryonic fibroblast (NIH3t3)
testDescription: Cytotoxicity, MTS method, NIH3T3 cell
Format: cell-based
measurementContext: Mus musculus, NIH3T3, MTS method; read-out: IC50(mM) NIH3T3 cell
propertyLabel: IC50 (mM)

>  <structureAsSmiles>
COc1ccc(OC(=O)C2CCCC2)c(C(C)(C)C)c1

>  <observedValue>
0.229

$$$$
>  <structureAsSmiles>
COc1ccc(OC(=O)Cc2ccc(OC)c(OC)c2)c(C(C)(C)C)c1

>  <observedValue>
0.333

$$$$
>  <structureAsSmiles>
COc1ccc(OC(=O)Cc2cc(F)c(F)cc2F)c(C(C)(C)C)c1

>  <observedValue>
0.26

$$$$

====

testDescription: Acute toxicity in mice, up-down method
Type: in vivo
measurementContext: mouse, in vivo, oral; acute toxicity in mice, as restated
propertyLabel: LD50 (mg/kg)

>  <molecule>
COc1ccc(O)c(C(C)(C)C)c1 [BHA, 2-tert-butyl-4-methoxyphenol]

>  <readingUnit>
mg/kg

>  <observedValue>
1100

$$$$

====

testDescription: Drug metabolism tests of BHA in vivo
Parameters: species or system mice
measurementContext: mouse, plasma; FIG. 2A and B; read-out: half-life of BHA in vivo

>  <structureAsSmiles>
COc1ccc(O)c(C(C)(C)C)c1

>  <half-life>
30 to 60 min

$$$$

====

Each entry below carries its reported IC50.
Test system: mice embryonic fibroblast (NIH3t3)
testDescription: Cytotoxicity, MTS method, NIH3T3 cell
Format: cell-based
measurementContext: Mus musculus, NIH3T3, MTS method; read-out: IC50(mM) NIH3T3 cell

>  <compound>
C=CC(=O)Oc1ccc(OC)cc1C(C)(C)C [XH2017, 2-tert-butyl-4-methoxyphenol acrylate]

>  <assayedSystem>
mice embryonic fibroblast (NIH3t3)

>  <readingUnit>
mM

>  <IC50>
0.0229

$$$$
>  <compound>
C#CC(=O)Oc1ccc(OC)cc1C(C)(C)C

>  <assayedSystem>
mice embryonic fibroblast (NIH3t3)

>  <readingUnit>
mM

>  <IC50>
0.248

$$$$
>  <compound>
CCC(=O)Oc1ccc(OC)cc1C(C)(C)C [XH2016, 2-tert-butyl-4-methoxyphenol propionate]

>  <assayedSystem>
mice embryonic fibroblast (NIH3t3)

>  <readingUnit>
mM

>  <IC50>
0.0186

$$$$
>  <compound>
COc1ccc(OC(=O)c2ccc3ccccc3c2)c(C(C)(C)C)c1

>  <assayedSystem>
mice embryonic fibroblast (NIH3t3)

>  <readingUnit>
mM

>  <IC50>
0.232

$$$$
>  <compound>
COc1ccc(OC(=O)c2cc3ccccc3[nH]2)c(C(C)(C)C)c1

>  <assayedSystem>
mice embryonic fibroblast (NIH3t3)

>  <readingUnit>
mM

>  <IC50>
0.517

$$$$
>  <compound>
COc1ccc(OC(=O)CC2CCCCC2)c(C(C)(C)C)c1

>  <assayedSystem>
mice embryonic fibroblast (NIH3t3)

>  <readingUnit>
mM

>  <IC50>
0.106

$$$$
>  <compound>
COc1ccc(OC(=O)Cc2c[nH]c3ccccc23)c(C(C)(C)C)c1

>  <assayedSystem>
mice embryonic fibroblast (NIH3t3)

>  <readingUnit>
mM

>  <IC50>
0.065

$$$$
>  <compound>
COc1ccc(OC(C)=O)c(C(C)(C)C)c1 [XH2006, 2-tert-butyl-4-methoxyphenol acetate]

>  <assayedSystem>
mice embryonic fibroblast (NIH3t3)

>  <readingUnit>
mM

>  <IC50>
0.021

$$$$
>  <compound>
COc1ccc(OC(=O)C2=CCCCC2)c(C(C)(C)C)c1

>  <assayedSystem>
mice embryonic fibroblast (NIH3t3)

>  <readingUnit>
mM

>  <IC50>
0.194

$$$$
>  <compound>
COc1ccc(OC(=O)c2cc(Cl)nnc2Cl)c(C(C)(C)C)c1

>  <assayedSystem>
mice embryonic fibroblast (NIH3t3)

>  <readingUnit>
mM

>  <IC50>
0.236

$$$$
>  <compound>
CC#CC(=O)Oc1ccc(OC)cc1C(C)(C)C [XH2019, 2-tert-butyl-4-methoxyphenol butynoate]

>  <assayedSystem>
mice embryonic fibroblast (NIH3t3)

>  <readingUnit>
mM

>  <IC50>
0.0476

$$$$
>  <compound>
CCCCCCCC(=O)Oc1ccc(OC)cc1C(C)(C)C [XH2040-4, (2-tert-butyl-4-methoxyphenol) octanoate]

>  <assayedSystem>
mice embryonic fibroblast (NIH3t3)

>  <readingUnit>
mM

>  <IC50>
0.366

$$$$
>  <compound>
COc1ccc(OC(=O)c2cccnc2)c(C(C)(C)C)c1 [XH2010, 2-tert-butyl-4-methoxyphenol nicotinate]

>  <assayedSystem>
mice embryonic fibroblast (NIH3t3)

>  <readingUnit>
mM

>  <IC50>
0.186

$$$$
>  <compound>
COc1ccc(OC(=O)Cc2cccs2)c(C(C)(C)C)c1

>  <assayedSystem>
mice embryonic fibroblast (NIH3t3)

>  <readingUnit>
mM

>  <IC50>
0.146

$$$$
>  <compound>
COc1ccc(OC(=O)CC2CC2)c(C(C)(C)C)c1

>  <assayedSystem>
mice embryonic fibroblast (NIH3t3)

>  <readingUnit>
mM

>  <IC50>
0.232

$$$$
>  <compound>
COc1ccc(OC(=O)c2ccncc2)c(C(C)(C)C)c1

>  <assayedSystem>
mice embryonic fibroblast (NIH3t3)

>  <readingUnit>
mM

>  <IC50>
0.0326

$$$$
>  <compound>
COc1ccc(OC(=O)c2ccccc2)c(C(C)(C)C)c1 [XH2005, 2-tert-butyl-4-methoxyphenol benzoate]

>  <assayedSystem>
mice embryonic fibroblast (NIH3t3)

>  <readingUnit>
mM

>  <IC50>
0.0875

$$$$
>  <compound>
COc1ccc(OC(=O)CC(F)(F)F)c(C(C)(C)C)c1

>  <assayedSystem>
mice embryonic fibroblast (NIH3t3)

>  <readingUnit>
mM

>  <IC50>
0.353

$$$$
